- system: T1, PUF4 RNA-binding domain (Saccharomyces cerevisiae, UniProt P25339 537-888)
- T1 sequence: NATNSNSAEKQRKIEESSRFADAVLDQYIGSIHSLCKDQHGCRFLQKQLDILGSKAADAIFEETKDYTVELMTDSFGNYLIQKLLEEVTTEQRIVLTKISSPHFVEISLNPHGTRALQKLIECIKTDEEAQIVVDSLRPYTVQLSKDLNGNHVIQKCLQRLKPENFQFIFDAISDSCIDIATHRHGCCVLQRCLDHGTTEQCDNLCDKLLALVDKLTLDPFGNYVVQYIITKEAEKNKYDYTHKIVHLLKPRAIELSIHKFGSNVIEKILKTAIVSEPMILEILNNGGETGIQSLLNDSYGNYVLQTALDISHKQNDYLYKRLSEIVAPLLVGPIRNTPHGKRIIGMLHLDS
- measurement description: Mg; RNA-MaP; 20 mM Na-HEPES pH 7.4, 30 mM KOAc, 0.75 mM MgCl2, 0.1% Tween-20, 5% glycerol, 0.1 mg/mL BSA, 2 mM DTT; 25 C; 0.0125-409.6 nM protein
- condition label: tags: N-His6-TEV cleaved; C-SNAP kept, Cy3B-labelled; label: tethered on chip by stalled RNA polymerase
measured property: log10 of Kd (log10 of the value in nM)
Recall that a logarithmic scale is used here: each number is log10 of Kd in nM.

For the binder Ib_S2_P4E.1_K4.1_C4.1_H4.1_[T1C]_A4.1_F4.1_[A9C]_T4.1 (ssRNA) RNA: UUUGAUUAAUAUGAUAUCGUUCUUUCUCGUAUAUUCUUCUUUCUCGAUAUCAUAUUAAUCUUU , what log10 of Kd is on record?
2.78

Consider the binder UCUCUUGCUGUAUAUUAAUUCUCUU (ssRNA) [Id_ii_S1_P4E.2_K4.1_C4.2_[C-2G]_[T-1C]_H4.1_A4.1_F4.1_T4.2_[G10A]] and give its measured log10 of Kd.
0.43

What value of measured log10 of Kd is listed for UCUCUUCAUGUAUAUUAUCUCUCUU (ssRNA) [Id_ii_S1_P4E.2_K4.1_C4.2_[T-1A]_H4.1_A4.1_F4.1_T4.2_[G10T]_[T11C]] ?
-0.01

Field request: log10 of Kd | item: UCUCUUUGCAAUAUUAUCUCUU (ssRNA) [Ib_S1_P5E.1_K5.1_C5.1_H5.1_[T3C]_A5.1_[T5A]_F5.1_T5.1]
3.14

Look up log10 of Kd for this binder: ACAAACGUACACUAUAUCACAAAC (ssRNA) [Id_ii_S3_P3E.4_K3.3_C3.2_[C-2G]_H3.3_A3.1_F3.1_T3.2_[A10C]]
1.71

Reported log10 of Kd for UCUCUUCUACACUAUAUAUCUCUU (ssRNA) [If_S1_P3E.4_K3.3_C3.2_H3.3_A3.1_F3.1_T3.2] : what is it?
3.00

What log10 of Kd value was documented for this binder, Id_ii_S2_P4E.3_K4.2_C4.2_[C-2A]_[T-1C]_H4.2_A4.1_F4.1_T4.2_[G10C] (ssRNA) RNA: UUUGAUUAAUAUGAUAUCGUUCUUUCUACUAUAUAUUACUUUCUUUCUCGAUAUCAUAUUAAUCUUU ?
0.97

What value of measured log10 of Kd is listed for Ic_S4_P4E.1_K4.1_C4.1_H4.1_A4.1_[A6C]_[T7G]_F4.1_[T8C]_[A9C]_T4.1 (ssRNA) RNA: UUUGACAACUGAUCGUUCUUUCUUGUAUCGCCUUCUUUCUCGAUCAGUUGUCUUU ?
3.00

Param item = UCUCUUCCUAUAUAUUAAUUCUCUU (ssRNA) [Id_ii_S1_P4E.3_K4.2_C4.2_[T-1C]_H4.2_A4.1_F4.1_T4.2_[G10A]] ; retrieve measured log10 of Kd.
1.43

What measured log10 of Kd goes with UCUCUUUCGUGUAUUUAAGUUCUCUU (ssRNA) [Id_iii_S1_P4E.9_K4.5_C4.3_[T-1G]_H4.1_A4.2_F4.2_T4.2] ?
2.84

Fill in: log10 of Kd of Id_ii_S2_P5E.2_K5.1_C5.2_[C-2G]_[T-1C]_H5.1_A5.1_F5.1_T5.2_[T11A]_[A12T] (ssRNA) RNA: UUUGAUUAAUAUGAUAUCGUUCUUUCUGCUGUAUUAUUAAUUUCUUUCUCGAUAUCAUAUUAAUCUUU is ___
0.53

May I ask what log10 of Kd has been recorded for UCUCUUUGUCAUUAUUAUCUCUU (ssRNA) [Ie_S1_P5E.1_K5.1_C5.1_H5.1_[+3C]_A5.1_F5.1_T5.1] ?
2.00

Query (binder): Id_ii_S2_P3E.3_K3.2_C3.2_[C-2T]_H3.2_A3.1_F3.1_T3.2_[T9A]_[A10C] (ssRNA) RNA: UUUGAUUAAUAUGAUAUCGUUCUUUCUUUUAUAUAUAACUUCUUUCUCGAUAUCAUAUUAAUCUUU ; field requested: log10 of Kd
2.42

Which value of log10 of Kd has been reported for Ic_S2_P5E.1_K5.1_C5.1_H5.1_A5.1_[T5G]_[T6C]_[A7C]_F5.1_[T9A]_[A10T]_T5.1 (ssRNA) RNA: UUUGAUUAAUAUGAUAUCGUUCUUUCUUGUAGCCUAUUUCUUUCUCGAUAUCAUAUUAAUCUUU in the records?
0.66

For the binder shown here, Id_ii_S2_P5E.3_K5.2_C5.2_[C-2G]_[T-1C]_H5.2_A5.1_F5.1_T5.2_[T11A]_[A12T] (ssRNA) RNA: UUUGAUUAAUAUGAUAUCGUUCUUUCUGCUAUAUUAUUAAUUUCUUUCUCGAUAUCAUAUUAAUCUUU , give the reported log10 of Kd.
1.98

What log10 of Kd value was documented for this binder, UCUCUUUGUAAUUCCUUCUCUU (ssRNA) [Ic_S1_P5E.1_K5.1_C5.1_H5.1_A5.1_[T5A]_[A7T]_F5.1_[T8C]_[T9C]_[A10T]_T5.1] ?
2.65

Which log10 of Kd is listed for UCUCUUAGCUAUAUAUAUAUCUCUU (ssRNA) [Id_i_S1_P3E.6_K3.2_C3.3_[T-3A]_[C-2G]_[T-1C]_H3.2_A3.1_F3.1_T3.2] ?
2.91

Any idea what its log10 of Kd is? The binder is UCUCUUUGUGUAUAUUAUGUCUCUU (ssRNA) [Id_ii_S1_P4E.2_K4.1_C4.2_[C-2T]_[T-1G]_H4.1_A4.1_F4.1_T4.2_[G10T]_[T11G]]
-0.01

Which log10 of Kd value belongs to Ic_S4_P3E.1_K3.1_C3.1_H3.1_A3.1_[T5G]_[A6C]_F3.1_[T7A]_[A8T]_T3.1 (ssRNA) RNA: UUUGACAACUGAUCGUUCUUUCUUGUAGCAUUUCUUUCUCGAUCAGUUGUCUUU ?
1.55

Entry Ie_S2_P3E.2_K3.1_C3.2_H3.1_[+1CCTC]_A3.1_F3.1_T3.2 (ssRNA) RNA: UUUGAUUAAUAUGAUAUCGUUCUUUCUCUUCCUCGUAUAUAUAUUCUUUCUCGAUAUCAUAUUAAUCUUU has what log10 of Kd?
1.72

Report log10 of Kd for Ie_S2_P4E.1_K4.1_C4.1_H4.1_A4.1_F4.1_[+9CCCTT]_T4.1 (ssRNA) RNA: UUUGAUUAAUAUGAUAUCGUUCUUUCUUGUAUAUUACCCUUUUCUUUCUCGAUAUCAUAUUAAUCUUU please.
-0.28

Query (binder): Ic_S4_P4E.1_K4.1_C4.1_H4.1_A4.1_[T5C]_[A6T]_F4.1_[A9C]_T4.1 (ssRNA) RNA: UUUGACAACUGAUCGUUCUUUCUUGUACUUUCUUCUUUCUCGAUCAGUUGUCUUU ; field requested: log10 of Kd
1.12

Source: paper PMC9352680
